- System: NCI-H596 (Other Solid Carcinomas)
- assay_overview: combination Emax (second highest fraction inhibited in the dose matrix, 72 h); higher = more inhibition; extreme values may be limits of the assay
endpoint: combination Emax
Reply with just the number.

The recorded combination Emax for entry CN(C)CCCOc1ccc(-c2ccc3ncc4c(c3c2)n(C2CCOCC2)c(=O)n4C)cn1 [AZD0156] + O=C(c1cc(Cc2n[nH]c(=O)c3ccccc23)ccc1F)N1CCN(C(=O)C2CC2)CC1 [Olaparib] (first compound max 3 µM, partner max 3 µM) equals 0.41

* * *

- Tested on: P30-OHK (B-Lymphoblastic Leukemia)
- assay_overview: Bliss excess, mean over the matrix (fraction); higher = more synergy
endpoint: Bliss excess
Reply with just the number.

[[record]]
compound = "CC1(C)CCC(CN2CCN(c3ccc(C(=O)NS(=O)(=O)c4ccc(NCC5CCOCC5)c([N+](=O)[O-])c4)c(Oc4cnc5[nH]ccc5c4)c3)CC2)=C(c2ccc(Cl)cc2)C1 [Venetoclax] + C1CN(CCC1(C(=O)N[C@@H](CCO)C2=CC=C(C=C2)Cl)N)C3=NC=NC4=C3C=CN4 [Capivasertib] (first compound max 1 µM, 7x7, partner max 3 µM)"
endpoint = "Bliss excess"
reported_measurement = 0.058


The recorded Bliss excess for entry Cc1c2c(nn1C)CSCc1cc(n(C)n1)CSc1cc(c3ccccc3c1)OCCCc1c(C(=O)O)n(C)c3c-2c(Cl)ccc13 [AZD5991] + C[C@@H](Nc1cc(F)cc(F)c1)c1cc(C(=O)N(C)C)cc2c(=O)cc(N3CCOCC3)oc12 [AZD8186] (first compound max 1 µM, 7x7, partner max 3 µM) equals 0.0058

The recorded Bliss excess for entry COc1cc2c(cc1OCCCCCOc1cc3c(cc1OC)C(=O)N1C=C(C)C[C@H]1C=N3)N=C[C@@H]1CC(C)=CN1C2=O [SG3199] + O=C(c1cc(Cc2n[nH]c(=O)c3ccccc23)ccc1F)N1CCN(C(=O)C2CC2)CC1 [Olaparib] (first compound max 0.001 µM, 7x7, partner max 10 µM) equals -0.0422

The recorded Bliss excess for entry Cc1cc2ncnn2cc1Nc1ncc2c(n1)n(C1CCOCC1)c(=O)n2C [AZD7648] + CCN(CCO)CCCOc1ccc2c(Nc3cc(CC(=O)Nc4cccc(F)c4)[nH]n3)ncnc2c1 [AZD2811] (first compound max 10 µM, 7x7, partner max 1 µM) equals -0.0267

The recorded Bliss excess for entry CC(=O)c1c(C)c2cnc(Nc3ccc(N4CCNCC4)cn3)nc2n(C2CCCC2)c1=O [Palbociclib] + CC1(C)CCC(CN2CCN(c3ccc(C(=O)NS(=O)(=O)c4ccc(NCC5CCOCC5)c([N+](=O)[O-])c4)c(Oc4cnc5[nH]ccc5c4)c3)CC2)=C(c2ccc(Cl)cc2)C1 [Venetoclax] (first compound max 10 µM, 7x7, partner max 1 µM) equals 0.126

The recorded Bliss excess for entry CN(CCO)CC[C@H](CSc1ccccc1)Nc1ccc(S(=O)(=O)NC(=O)c2ccc(N3CCC([C@@H](O)c4ccccc4-c4ccc(Cl)cc4)CC3)cc2)cc1S(=O)(=O)C(F)(F)F [AZD4320] + CCN(CCO)CCCOc1ccc2c(Nc3cc(CC(=O)Nc4cccc(F)c4)[nH]n3)ncnc2c1 [AZD2811] (first compound max 1 µM, 7x7, partner max 1 µM) equals 0.045

* * *

- Tested on: MS-1 (Small Cell Lung Carcinoma)
- assay_overview: Bliss excess, mean over the matrix (fraction); higher = more synergy
Bliss excess listing for selected compounds.
Reply with just the number.

Solved cases (2 shown):
[[record]]
compound = "Cc1c2c(nn1C)CSCc1cc(n(C)n1)CSc1cc(c3ccccc3c1)OCCCc1c(C(=O)O)n(C)c3c-2c(Cl)ccc13 [AZD5991] + Cc1cc2ncnn2cc1Nc1ncc2c(n1)n(C1CCOCC1)c(=O)n2C [AZD7648] (first compound max 1 µM, 7x7, partner max 10 µM)"
endpoint = "Bliss excess"
reported_measurement = -0.0158

[[record]]
compound = "N#Cc1cnc(Nc2cc(NC[C@H]3CNCCO3)c(C(F)(F)F)cn2)cn1 [SRA737] + Nc1ccn([C@@H]2O[C@H](CO)[C@@H](O)C2(F)F)c(=O)n1 [Gemcitabine] (first compound max 10 µM, 7x7, partner max 0.3 µM)"
endpoint = "Bliss excess"
reported_measurement = 0.0566


The recorded Bliss excess for entry CC1(C)CCC(CN2CCN(c3ccc(C(=O)NS(=O)(=O)c4ccc(NCC5CCOCC5)c([N+](=O)[O-])c4)c(Oc4cnc5[nH]ccc5c4)c3)CC2)=C(c2ccc(Cl)cc2)C1 [Venetoclax] + C1CN(CCC1(C(=O)N[C@@H](CCO)C2=CC=C(C=C2)Cl)N)C3=NC=NC4=C3C=CN4 [Capivasertib] (first compound max 1 µM, 7x7, partner max 3 µM) equals -0.0572
